Molecular target: Streptokinase A (Streptococcus pyogenes serotype M1)
Sequence (P10520 whole entry): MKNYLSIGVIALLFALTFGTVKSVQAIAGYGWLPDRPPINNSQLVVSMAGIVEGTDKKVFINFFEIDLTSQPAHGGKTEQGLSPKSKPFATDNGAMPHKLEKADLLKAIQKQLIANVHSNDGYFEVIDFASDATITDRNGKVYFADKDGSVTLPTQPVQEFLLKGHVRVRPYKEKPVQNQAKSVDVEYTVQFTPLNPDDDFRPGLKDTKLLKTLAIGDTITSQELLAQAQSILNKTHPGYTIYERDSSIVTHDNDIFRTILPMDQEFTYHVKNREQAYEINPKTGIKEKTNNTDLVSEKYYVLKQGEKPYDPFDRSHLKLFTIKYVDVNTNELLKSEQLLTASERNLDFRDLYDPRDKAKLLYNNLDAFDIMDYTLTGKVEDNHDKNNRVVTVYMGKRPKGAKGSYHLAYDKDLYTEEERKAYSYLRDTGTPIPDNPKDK
Experiment: viability-normalized secreted streptokinase activity reduction – plasminogen activation absorbance, OD405, dose response (AID 1914);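 further: secreted streptokinase activity via plasminogen activation per viability signal from cell pellet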
Type: functional, Streptococcus pyogenes M1 GAS
The source made the active and inactive calls.
MEASURE_NAME: EC50

{"COMPOUND": "CS(=O)(=O)c1ccc([C@@H](O)[C@@H](CO)NC(=O)C(Cl)Cl)cc1", "RESULT": "4.02 µM (active)"}
{"COMPOUND": "Cc1ccc(OCCCCc2c(C)n[nH]c2C)cc1", "RESULT": "> 150 µM (not active)"}
{"COMPOUND": "CCc1noc(C)c1C(=O)OCC(=O)NC(=O)c1ccccc1", "RESULT": "> 150 µM (not active)"}
{"COMPOUND": "COc1ccc(C2=NOC(CNC(N)=S)C2)cc1 (stereo unspecified)", "RESULT": "> 150 µM (not active)"}
{"COMPOUND": "N#Cc1nc(-c2ccc(OCc3ccccc3Cl)cc2)oc1NCCCn1ccnc1", "RESULT": "16.6 µM (active)"}
{"COMPOUND": "COc1ccc(S(=O)(=O)NCC2CCCN(Cc3ccc(OC)cc3F)C2)cc1 (stereo unspecified)", "RESULT": "> 150 µM (not active)"}

---

Examples of compounds with documented EC50 follow.
Test: NIH3T3 cell viability loss – ATP luminescence, mouse fibroblasts, counter-screen, dose response (AID 2010);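 further: cells exposed to compound for about 90 hours before reading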
Type: functional, cell-based
Calls of active or inactive are those of the source.

{"COMPOUND": "COc1ccccc1NC1=C(N2CCCCC2)C(=O)c2ccccc2C1=O", "EC50": "> 30 µM (not active)"}
{"COMPOUND": "CCN(CC)c1nc(-c2ccccn2)nc(-c2ccccc2)c1C#N", "EC50": "6.71 µM (active)"}
{"COMPOUND": "Nc1c(C(=O)c2ccccc2)sc2nsc(SCCN3CCCC3)c12", "EC50": "14.9 µM (active)"}
{"COMPOUND": "CCN1C(=O)[C@H]2[C@@H](c3ccc(-c4cccc(Cl)c4)cc3)N[C@@](Cc3ccccc3)(C(=O)OC)[C@H]2C1=O", "EC50": "14.6 µM (active)"}
{"COMPOUND": "Cc1ccc(-n2nnnc2C(Cl)c2nnnn2-c2ccc(C)cc2)cc1", "EC50": "> 60 µM (not active)"}

---

Assay: Luminescence Cell-Based Dose Confirmation HTS to Identify Activators of 5'UTR Stem-Loop Driven Alpha-Synuclein mRNA Translation in H4 Neuroglioblastoma Cells. [Related pubchem assays: 1829 (Project Summary), 1814 (Primary HTS)]
Assay type: functional
Activity calls are given as the source filed them.

{"COMPOUND": "C/C(CC(=O)Nc1cc(C)cc(C)c1)=N\\NC(=O)c1ccccn1", "EC50": "> 120 µM (not active)"}
{"COMPOUND": "Clc1ccccc1CSc1ncn(-c2ccccc2)n1", "EC50": "0.191 µM (active)"}
{"COMPOUND": "O=C(Cn1cnc2c(oc3ccccc32)c1=O)c1ccccc1", "EC50": "104 µM (active)"}
{"COMPOUND": "COc1ccc(Nc2ccc3c(c2)=NC2(CCCCC2)[N+]=3[O-])cc1", "EC50": "> 120 µM (not active)"}
{"COMPOUND": "CC(C)Sc1nc(NCc2ccco2)c2c3c(sc2n1)COC(C)(C)C3", "EC50": "14.6 µM (active)"}
{"COMPOUND": "O=C(OCc1nc2ccccc2s1)C1CCN(C2=NS(=O)(=O)c3ccccc32)CC1", "EC50": "24 µM (active)"}
{"COMPOUND": "CCCn1c(O)nnc1SCc1nc2ccccc2s1", "EC50": "3.71 µM (active)"}
{"COMPOUND": "CC(C)C[C@@H](CSc1ccccc1)N1CCN(CC(C)C)CCC1=O", "EC50": "5.27 µM (active)"}

---

Molecular target: UniProt P61088
Sequence (P61088 whole entry): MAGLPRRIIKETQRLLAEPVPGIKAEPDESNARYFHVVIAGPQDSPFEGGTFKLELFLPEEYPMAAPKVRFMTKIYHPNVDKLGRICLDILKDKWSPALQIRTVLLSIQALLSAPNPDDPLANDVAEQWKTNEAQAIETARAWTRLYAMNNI
Format: functional
The source made the active and inactive calls.
Possible outcomes: class 1 = active, class 0 = inactive

{"COMPOUND": "Cc1c(Br)c([N+](=O)[O-])nn1CCCC(=O)Nc1c(C)n(C)n(-c2ccccc2)c1=O", "ASSIGNED_CLASS": "class 0"}
{"COMPOUND": "C#CCOCCOCCOCCNc1nc(N2CCN(C(=O)CCCCCCCCCCNC(=O)[C@@H](CCC(=O)O)n3cc(CCCCCN)nn3)CC2)nc(N2CCN(C(=O)CCCCCCCCCCNC(=O)[C@H](CCCCN)n3cc(C[C@@H](C)CC)nn3)CC2)n1", "ASSIGNED_CLASS": "class 1"}
{"COMPOUND": "O=C(COC(=O)c1c[nH]c(=O)[nH]c1=O)Nc1cccc([N+](=O)[O-])c1", "ASSIGNED_CLASS": "class 0"}
{"COMPOUND": "Clc1ccc2c(c1)CNc1c(ncnc1N1CCOCC1)O2", "ASSIGNED_CLASS": "class 0"}
{"COMPOUND": "C#CCOCCOCCOCCNc1nc(N2CCN(C(=O)[C@H](CCCN=C(N)N)n3cc(C(N)[C@@H](C)CC)nn3)CC2)nc(N2CCN(C(=O)[C@H](CCCCN)n3cc([C@@H](N)[C@H](C)CC)nn3)CC2)n1 (some centres undefined)", "ASSIGNED_CLASS": "class 1"}
{"COMPOUND": "COc1ccc(C[C@H]2CN3C(=NC[C@@H]3C(C)C)N2CCNC(=O)c2ccc(C)c(Br)c2)cc1", "ASSIGNED_CLASS": "class 0"}
{"COMPOUND": "CCOC(=O)c1c(NC(=O)c2ccc(C)cc2)sc2c1CC(C)(C)NC2(C)C", "ASSIGNED_CLASS": "class 0"}
{"COMPOUND": "O=C(NNC(=O)c1nn(-c2ccc(F)cc2)ccc1=O)c1ccc(Cl)cc1", "ASSIGNED_CLASS": "class 1"}
{"COMPOUND": "CC(C)(C)CC(C)(C)c1ccc(OCCOCC[N+](C)(C)Cc2ccccc2)cc1 [BENZETHONIUM CHLORIDE]", "ASSIGNED_CLASS": "class 0"}

---

Target: Heat shock factor protein 1 (Mus musculus)
Sequence (P38532 whole entry): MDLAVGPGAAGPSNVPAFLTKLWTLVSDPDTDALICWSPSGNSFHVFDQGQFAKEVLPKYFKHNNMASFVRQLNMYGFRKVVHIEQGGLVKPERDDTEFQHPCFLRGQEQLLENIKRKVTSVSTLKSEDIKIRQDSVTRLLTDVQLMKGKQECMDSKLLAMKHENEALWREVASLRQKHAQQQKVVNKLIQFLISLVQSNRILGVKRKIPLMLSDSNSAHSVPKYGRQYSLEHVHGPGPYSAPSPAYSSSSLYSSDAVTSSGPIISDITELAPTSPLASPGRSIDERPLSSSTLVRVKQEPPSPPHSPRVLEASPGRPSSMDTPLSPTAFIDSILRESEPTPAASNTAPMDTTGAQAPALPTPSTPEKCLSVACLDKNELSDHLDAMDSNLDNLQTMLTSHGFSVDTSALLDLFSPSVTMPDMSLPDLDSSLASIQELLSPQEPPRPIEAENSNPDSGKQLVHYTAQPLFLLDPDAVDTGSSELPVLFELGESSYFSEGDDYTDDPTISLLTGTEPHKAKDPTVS
Experiment: enhancement of HSF1-driven luciferase signal – cell-based, NIH3T3, luminescence, dose retest, confirmation (AID 435004);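 further: stress induced by proteasome inhibitor MG132 added 30 min after compound; luciferase reporter driven by HSF1 response element in NIH3T3 cells; actives raise luminescence as potentiators of the MG132 stress response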
Format: functional
The source made the active and inactive calls.
Labels: yes (1) for active, no (0) for inactive

{"MOLECULE": "CCOC(=O)c1c(NC(C)=O)sc2c1CCC(/C=N/CCCN(CC)CC)=C2Sc1ccccc1", "ASSIGNED_CLASS": "yes (1)"}
{"MOLECULE": "O=C1CC(N2CCC(c3nc4ccccc4[nH]3)CC2)C(=O)N1c1ccccc1F (configuration not stated)", "ASSIGNED_CLASS": "no (0)"}
{"MOLECULE": "CC(NC(=O)c1ccc(C(C)(C)C)cc1)C(c1cccs1)N1CCOCC1 (configuration not stated)", "ASSIGNED_CLASS": "no (0)"}
{"MOLECULE": "CCCC(C(=O)NCc1ccco1)N(C(=O)CNS(=O)(=O)c1ccc(Cl)cc1)C1CCCC1 (configuration not stated)", "ASSIGNED_CLASS": "no (0)"}
{"MOLECULE": "O=C(Nc1cccc(Cl)c1)N(Cc1nc(O)c2ccccc2n1)C1CCCC1", "ASSIGNED_CLASS": "no (0)"}
{"MOLECULE": "O=C(CNC(=O)C1CCCCC1)OCC(=O)c1ccc(Br)cc1", "ASSIGNED_CLASS": "no (0)"}
{"MOLECULE": "CCOC(=O)C1C(=O)OC(C)(C)C1C(C)C(=O)c1ccc(C)cc1C (configuration not stated)", "ASSIGNED_CLASS": "no (0)"}

---

Target: Glucose-6-phosphate 1-dehydrogenase (Homo sapiens, UniProt P11413)
Sequence (P11413 whole entry): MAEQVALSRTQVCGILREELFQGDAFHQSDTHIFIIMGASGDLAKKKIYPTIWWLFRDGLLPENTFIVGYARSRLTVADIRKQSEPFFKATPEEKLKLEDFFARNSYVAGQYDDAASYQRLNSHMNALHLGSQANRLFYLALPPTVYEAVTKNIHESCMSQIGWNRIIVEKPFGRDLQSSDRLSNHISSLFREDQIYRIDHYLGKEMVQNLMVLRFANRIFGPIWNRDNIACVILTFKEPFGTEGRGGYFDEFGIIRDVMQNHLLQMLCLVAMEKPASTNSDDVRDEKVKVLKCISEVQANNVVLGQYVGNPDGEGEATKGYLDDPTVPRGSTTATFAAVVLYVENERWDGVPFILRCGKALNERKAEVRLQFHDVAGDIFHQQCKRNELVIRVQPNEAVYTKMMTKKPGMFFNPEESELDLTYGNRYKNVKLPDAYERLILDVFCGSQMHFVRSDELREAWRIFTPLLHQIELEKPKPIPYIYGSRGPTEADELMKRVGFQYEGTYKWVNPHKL
Test: inhibition of Homo sapiens G6PD, dose series – biochemical, fluorescence, selectivity assay for P. falciparum G6PD inhibitor project, dose response (AID 504792)
Assay type: functional
Active and inactive are the calls of the source.
Classes used: True = active, False = inactive

{"COMPOUND": "CCOC(=O)c1sc(NC(=O)CSc2nnc(Cc3ccccc3)o2)c(C#N)c1C", "ASSIGNED_CLASS": "False"}
{"COMPOUND": "O=C(CBr)c1ccc([N+](=O)[O-])c(CS(=O)(=O)c2ccc(Cl)cc2)c1", "ASSIGNED_CLASS": "False"}
{"COMPOUND": "O=C1NC(=O)C(=Cc2ccc(-c3ccccc3[N+](=O)[O-])o2)C(=O)N1", "ASSIGNED_CLASS": "False"}
{"COMPOUND": "COc1ccc(-n2sc3ccccc3c2=O)cc1", "ASSIGNED_CLASS": "True"}
{"COMPOUND": "Cc1ccc(-c2c(C(=O)N/N=C/c3ccsc3)nnn2-c2nonc2N)cc1", "ASSIGNED_CLASS": "False"}
{"COMPOUND": "CN(C)c1ccc(/C=C/c2ccc3c4ccccc4ccc3[n+]2-c2ccccc2)cc1", "ASSIGNED_CLASS": "False"}
{"COMPOUND": "C[C@H](NC(N)=O)C(=O)Nc1ccc(N2CCOCC2)c(S(=O)(=O)Nc2ccc(Cl)cc2)c1", "ASSIGNED_CLASS": "False"}
